The following compounds are shown together with reported melting point values.
value-type: melting point

>>> recorded_result("CCc1c([N+](=O)[O-])c(C(N)=O)nn1C[C@@H]1CCCN1C(=O)OC(C)(C)C")
"68 to 75 °C"
>>> recorded_result("CC1CCCC=C1c1ccc(C(=O)O)cc1 (stereo unspecified)")
"146 to 147 °C"
>>> recorded_result("Cn1c(NN)nc2ccc(O)cc2c1=O")
"> 300 °C"
>>> recorded_result("CC=CCn1c(C)c(CC)c2cnnc(OCc3ccc(F)cc3)c21")
"78 to 83 °C"
>>> recorded_result("Cc1ccc(-c2ccc(C(=O)CCC(=O)O)cc2)cc1")
"183 to 186 °C"
>>> recorded_result("CS(=O)(=O)Nc1ccc(Cl)c([N+](=O)[O-])c1")
"163 °C"
>>> recorded_result("Cc1noc(CC(=O)Oc2ccc(Br)cc2)n1")
"73 to 74 °C"
>>> recorded_result("O=C(Nc1c[nH]nc1C(=O)NCCc1cccnc1)c1ccccn1")
"267 to 268 °C"
>>> recorded_result("CCCCc1ccc(NC(=O)CN(C)C)c(N)c1")
"66 to 68 °C"
>>> recorded_result("Cn1c(C(F)(F)F)cc(=O)n(-c2cc(OC=O)c(Cl)cc2F)c1=O")
"97 to 99 °C"
>>> recorded_result("COc1ccc(S(=O)(=O)C2(C(=O)NO)CCN(CC=C(C)C)CC2)cc1")
"142 to 145 °C"
>>> recorded_result("CCCC(=O)c1cnc2c(C)cccc2c1Nc1ccccc1Cl")
"130 to 131 °C"
>>> recorded_result("CC(C)(C)COc1c(NCCCBr)c(=O)c1=O")
"111 to 113 °C"
>>> recorded_result("CC(CN1CCN(c2ccc(C(=O)O)cc2)CC1)Oc1ccccc1 (stereo unspecified)")
"152 to 154 °C"
>>> recorded_result("O=C(O)C1C=CCn2c(=O)n(CCS)c(=O)n21 (stereo unspecified)")
"156 to 158 °C"
>>> recorded_result("COc1cc(OC)cc(C(=O)N2CCc3cc(O)c(OC)cc3C2=O)c1")
"198 to 199 °C"
>>> recorded_result("COC(=O)c1cc2cc(OC)c(OCCCl)cc2[nH]1")
"164 to 166 °C"
>>> recorded_result("N#Cc1cccc(C=CCN2CCc3nc(N)sc3CC2)c1")
"136 to 140 °C"
>>> recorded_result("C=CCOc1ccc(-c2ccc(C(=O)OC)cc2)cc1")
"149 °C"
>>> recorded_result("O=C(CS(=O)Cc1cccs1)C12CC3CC(CC(C3)C1)C2 (stereo unspecified)")
"95 to 98 °C"
>>> recorded_result("CCCCCCCCCCCCCCCCOC(=O)c1cccc([N+](=O)[O-])c1")
"51 to 53 °C"
>>> recorded_result("COc1ccc2c(c1F)OCc1c(C(F)(F)F)nn(-c3ccc(S(N)(=O)=O)cc3)c1-2")
"133 to 138 °C"
>>> recorded_result("CNS(=O)(=O)NCCNC(=O)[C@@H](C[C@H](O)[C@H](C)NC(=O)OC(C)(C)C)C(C)C")
"75 to 95 °C"
>>> recorded_result("CCCc1c(C2CCC(c3ccccc3)(N(C)C)CC2)[nH]c2ccccc12 (stereo unspecified)")
"177 to 181 °C"
>>> recorded_result("COC(=O)N1Cc2cc(OC)ccc2C(Cc2c(Cl)cncc2Cl)=N1")
"184 to 186 °C"
>>> recorded_result("COC=C(C(=O)OC)c1ccccc1C#CC1=CCN(c2ccc(Cl)cc2)O1")
"107 to 110 °C"
>>> recorded_result("CCCC(=O)c1ccc(-c2ncccc2S(=O)(=O)Nc2ncc(C)nc2OC)cc1")
"130 to 131 °C"
>>> recorded_result("OCC(OC1CCCCO1)c1ccc2sccc2c1 (single isomer, unassigned; (-))")
"62 to 77 °C"
>>> recorded_result("O=C(O)CCc1cc(OCCCCc2cc(-c3ccc(C(F)(F)F)cc3)no2)nn1-c1ccccc1")
"139 to 140 °C"
>>> recorded_result("S=c1nc2ccc(Cl)cn2c(=S)n1-c1ccc(Cl)cn1")
"131 to 132 °C"
>>> recorded_result("C[C@@H](N(CC(=O)O)C(=O)c1ccc(C(F)(F)F)cc1)[C@](O)(Cn1cncn1)c1ccc(Cl)cc1Cl (relative stereo)")
"140 to 142 °C"
>>> recorded_result("O=S1(=O)c2cccc3cccc(c23)N1CCN1CCC(Cc2c[nH]c3ccccc23)CC1")
"184 °C"
>>> recorded_result("CCn1c(C)nc2cc(C(F)(F)F)c(Cl)c(NC)c21")
"116 to 119 °C"
>>> recorded_result("COc1ccc(-n2c(=O)[nH]c3c(C(N)=O)nc(-c4cccc(O)c4)nc32)c(F)c1")
"> 260 °C"
>>> recorded_result("O=[N+]([O-])CSc1ccc(Oc2ccccc2)cc1")
"100 to 102 °C"
>>> recorded_result("Nc1nc(-c2ccc(CCNC(=O)Cc3ccccc3)cc2)cs1")
"176 to 177 °C"
>>> recorded_result("CCCCc1nc2ccccc2c(=O)n1Cc1ccc(-c2ccccc2-c2nnn[nH]2)cc1")
"180 to 182 °C"
>>> recorded_result("O=C(O)C(O)=CC(=O)c1cn(Cc2ccccc2)cc(Cc2ccccc2)c1=O")
"140 to 142 °C"
>>> recorded_result("O=C(O)CN1C(=O)C(=Cc2ccccc2Cl)SC1=S")
"238 to 242 °C"
>>> recorded_result("CCOC(=O)CNc1nc2ccccc2s1")
"91 to 97 °C"
>>> recorded_result("CC(C)=CCCC(C)C1CCC2C3CC=C4CC(O)CC(O)C4(C)C3CCC12C (stereo unspecified)")
"137 to 139 °C"

###

The following compounds are shown together with reported melting point values.
value-type: melting point

>>> recorded_result("Cc1c(N2C[C@@H]3CCCN[C@@H]3C2)c(F)cc2c(=O)c(C(=O)O)cn([C@@H]3C[C@@H]3F)c12")
"244 to 245 °C"
>>> recorded_result("CC(C)N(CCN(C(=O)N(C)C)c1cccc(N)n1)C(C)C")
"86 to 88 °C"
>>> recorded_result("COc1cc(C(C)C)c2c(c1)S(=O)(=O)N(COc1cc(C(F)(F)F)nn1Cc1ccccc1)C2=O")
"116 to 118 °C"
>>> recorded_result("Nc1ccc(Cl)cc1C(=O)c1ccccc1O")
"51 to 52 °C"
>>> recorded_result("COc1c(Cl)cc(N)cc1Cl")
"80 to 81 °C"
>>> recorded_result("CCC1c2ncn(CC)c2CCN1C(=S)NC(C)C (stereo not given)")
"196 °C"
>>> recorded_result("CC(C)NC(=O)c1coc(CN2C(=O)C3(COc4cc5c(cc43)OCO5)c3ccccc32)n1 (stereo not given)")
"182 to 183 °C"
>>> recorded_result("Cc1oc(-c2ccco2)nc1COc1ccc(C=O)cn1")
"139 to 140 °C"
>>> recorded_result("COc1ccc(Cn2nnnc2C(=O)Nc2cc(OCCCOc3ccc(C(C)=O)c(O)c3CCC(F)(F)F)c(Br)cc2C)cc1")
"140 to 142 °C"
>>> recorded_result("O=C(O)CCCN(C(=O)c1ccc(Cl)cc1)c1cccc2ccccc12")
"173 to 174 °C"

###

The following molecules are shown together with reported melting point values.
value-type: melting point

>>> recorded_result("Cc1cnc(CCl)n2c1c(CCCl)c1ccccc12")
"160 to 161 °C"
>>> recorded_result("CCCCCS(=O)(=O)NC(=O)/C=C/c1ccc(OCCC(C)(C)O)cc1Oc1ncc(C(F)(F)F)cc1Cl")
"136 °C"
>>> recorded_result("COc1ccc(S(=O)(=O)Nc2cccnc2Nc2ccccc2O)cc1")
"154 to 155 °C"
>>> recorded_result("CN1CC(CCCN2CCN(c3ncccn3)CC2)OC1=O (stereo not given)")
"79 to 89 °C"
>>> recorded_result("Cc1ccccc1C1=NOC2(C1)OC(=O)c1ccccc12 (stereo not given)")
"146 to 149 °C"
>>> recorded_result("C=COCCOc1ccc(Oc2ccccc2)cc1")
"51 to 52 °C"
>>> recorded_result("CCOc1ccc(NC(=O)c2cnc3c(N)cccc3c2)cc1")
"187 to 189 °C"
>>> recorded_result("N=C(N)c1ccnc(-c2ccc(-c3ccc(-c4cc(C(=N)N)ccn4)s3)s2)c1")
"> 300 °C"
>>> recorded_result("Cc1ccc(Cl)c2c1[nH]c1c(C(=O)O)cccc12")
"303 °C"
>>> recorded_result("CCOC(=O)C1=Cc2cc(C(F)(F)C(F)(F)F)ccc2OC1C(F)(F)F (stereo not given)")
"162 to 165 °C"

###

The following molecules are shown together with reported melting point values.
value-type: melting point

>>> recorded_result("O=C(Cc1ccc(Br)cc1)c1ccc(Cl)cc1")
"123 °C"
>>> recorded_result("O=C(O)[C@H]1C[C@H](NCc2ccccc2)c2c(Cl)cc(Cl)cc2N1 (relative stereo)")
"112 to 114 °C"
>>> recorded_result("CCC(=O)Nc1ccc(Cl)c(-n2nc(CC)n(Cc3ccc(-c4ccccc4S(=O)(=O)NC(=O)OC(C)(C)C)cc3F)c2=O)c1")
"142 to 144 °C"
>>> recorded_result("CN(C)Cc1ccc(CSCCN=CNC#N)o1")
"74 to 76 °C"
>>> recorded_result("CC1=C(c2ccccc2)C(=O)N(C(C)(C)C(=O)C2CCCCC2)CO1")
"94 °C"
>>> recorded_result("Cc1ccc(Sc2cncc3sc(C(N)=O)cc23)cc1")
"198 to 199 °C"
>>> recorded_result("COC(=O)c1ccc(OC)c(C(F)(F)F)c1")
"77 to 79 °C"
>>> recorded_result("CCOC(=O)C(C)NC(=O)c1cc(C)on1 (stereo unspecified)")
"65 to 66 °C"
>>> recorded_result("O=C1CCOc2cc(F)ccc21")
"61 to 62 °C"
>>> recorded_result("NC1=NN(c2cccc(Cl)n2)C(c2ccc(Cl)cc2)C1 (stereo unspecified)")
"157 to 158 °C"
>>> recorded_result("Cc1nnc2n1-c1sc(CCC(=O)N3CCOCC3)cc1C(c1ccccc1Cl)=NC2C (stereo unspecified)")
"162 to 163 °C"
>>> recorded_result("CS(=O)(=O)c1cc(F)cc2c3c(n(Cc4ccc(Cl)cc4)c12)[C@@H](CC(=O)O)CC3")
"175 °C"
>>> recorded_result("O=C(O)c1ccc(NC(=O)C(CS)Cc2ccccc2)cc1 (stereo unspecified)")
"166 to 168 °C"
>>> recorded_result("COC(=O)C[C@@H]1C[C@@H](COc2ccc(-c3ccc(C(=N)NC(=O)OCc4ccccc4)cc3)cc2)N(c2ccccc2)C1=O")
"157 to 159 °C"
>>> recorded_result("CC(Oc1ccc(F)cc1)c1ccnn2cnnc12 (stereo unspecified)")
"103 to 104 °C"
>>> recorded_result("Cn1c(Cn2ccnc2)nc2ccccc21")
"151 to 152 °C"
>>> recorded_result("N#Cc1ncn(Cc2ccc(Cl)c(Cl)c2)c1C#N")
"95 to 96 °C"
>>> recorded_result("CNCCCOc1ccc(S(=O)(=O)c2[nH]c3ccccc3c2C(C)C)cc1")
"115 °C"
>>> recorded_result("C#Cc1c2c3c(cccc3n1C)C1CC(NC(=O)N(CC)CC)CN(C)C1C2 (stereo unspecified)")
"126 °C"
>>> recorded_result("CCCCCCCC1CC(C(=O)Nc2c(C(C)C)cccc2C(C)C)C(=O)O1 (stereo unspecified)")
"95 to 98 °C"
>>> recorded_result("O=[N+]([O-])c1cccc2c1S(=O)(=O)C=C2")
"195 to 197 °C"
